- Test system: A498
- assay: Cytotoxicity against human A498 cells assessed as cellular growth at 10 uM by SRB assay
- Type: functional
# if measured Activity < 90%: T  # else: F

## Input Consider COc1cc(/C=c2/sc3nc4ccccc4n3c2=O)cc(I)c1O . Does its Activity lie strictly below 90%?
## Output T

## Input Consider CC1(C)CCc2cc(-c3ccn(S(=O)(=O)c4ccccc4Cl)n3)ccc2O1 . Does its Activity lie strictly below 90%?
## Output T

## Input Consider Clc1cccc(-c2nc(-c3cccs3)no2)c1 . Does its Activity lie strictly below 90%?
## Output F

## Input Consider O=C(Nc1ccc(S(=O)(=O)Nc2nccs2)cc1)c1cccs1 . Does its Activity lie strictly below 90%?
## Output F

## Input Consider Clc1ccc(-c2nc(-c3cccs3)no2)c(Cl)c1 . Does its Activity lie strictly below 90%?
## Output F

## Input Consider COc1ccc2[nH]c(C(=O)NCc3ccccc3)cc2c1 . Does its Activity lie strictly below 90%?
## Output F

## Input Consider c1ccc(-c2nc(-c3cccs3)no2)cc1 . Does its Activity lie strictly below 90%?
## Output F

## Input Consider Cc1cc(C)c(NC(=O)c2sc3nc4c(cc3c2N)C(=O)CCC4)c(C)c1 . Does its Activity lie strictly below 90%?
## Output T

## Input Consider COc1ccc2nc(NC(=O)c3ccc(F)cc3)sc2c1 . Does its Activity lie strictly below 90%?
## Output T

## Input Consider COc1ccc(NC(=O)c2sc3nc4c(cc3c2N)C(=O)CCC4)cc1 . Does its Activity lie strictly below 90%?
## Output T

## Input Consider CC1(C)CCc2cc(-c3ccn(S(=O)(=O)c4ccc(Cl)cc4)n3)ccc2O1 . Does its Activity lie strictly below 90%?
## Output T

## Input Consider O=c1/c(=C/c2ccccc2)sc2nc(-c3ccc(Cl)cc3Cl)nn12 . Does its Activity lie strictly below 90%?
## Output F

## Input Consider O=C(Nc1nc2ccc(Cl)cc2s1)c1ccc(Cl)cc1Cl . Does its Activity lie strictly below 90%?
## Output F

## Input Consider O=C(NCc1ccc(Cl)cc1)c1[nH]c2ccccc2c1Cl . Does its Activity lie strictly below 90%?
## Output T

## Input Consider COc1cccc(C(=O)Nc2nc3ccc(Cl)cc3s2)c1 . Does its Activity lie strictly below 90%?
## Output T

## Input Consider Nc1c(C(=O)Nc2ccccc2F)sc2nc3c(cc12)C(=O)CCC3 . Does its Activity lie strictly below 90%?
## Output T

## Input Consider Cc1ccc(Cl)cc1NC(=O)c1sc2nc3c(cc2c1N)C(=O)CCC3 . Does its Activity lie strictly below 90%?
## Output T

## Input Consider Nc1c(C(=O)Nc2ccccc2)sc2nc3c(cc12)C(=O)CCC3 . Does its Activity lie strictly below 90%?
## Output T

## Input Consider O=S(=O)(Oc1ccc(-c2cnc3ccccc3n2)cc1)c1ccc2ccccc2c1 . Does its Activity lie strictly below 90%?
## Output T

## Input Consider O=S(=O)(Oc1ccc(-c2cnc3ccccc3n2)cc1)c1ccccc1 . Does its Activity lie strictly below 90%?
## Output T

## Input Consider CC1(C)CC(=O)c2cc3c(N)c(C(=O)Nc4ccc(F)cc4)sc3nc2C1 . Does its Activity lie strictly below 90%?
## Output T

## Input Consider CC1(C)CC(=O)c2cc3c(N)c(C(=O)Nc4ccccc4Cl)sc3nc2C1 . Does its Activity lie strictly below 90%?
## Output T

## Input Consider Nc1c(C(=O)Nc2cccc(Cl)c2)sc2nc3c(cc12)C(=O)CCC3 . Does its Activity lie strictly below 90%?
## Output T

## Input Consider O=C(NCCc1ccccc1)c1cc2cccc([N+](=O)[O-])c2[nH]1 . Does its Activity lie strictly below 90%?
## Output F
